# Tested on: RAW264.7
# PROTOCOL_DETAILS: Inhibition of LPS-induced nitric oxide production in mouse RAW264.7 cells pre-incubated for 1 hr followed by LPS stimulation for 24 hrs by Griess reagent based assay
# Assay type: functional, cell-based
Group membership follows IC50 per the scheme low class (below 30 µM), middle class (30 µM to below 40 µM), high class (40 µM or more)

Which class does CC(C)c1ccc(COc2ccccc2C2CC(=O)c3ccccc3O2)cc1 (centres undefined) fall in? low class

Which class does O=C1CC(c2ccccc2OCc2ccccc2)Oc2ccccc21 (centres undefined) fall in? low class

Which class does O=C1CC(c2ccccc2OCc2ccc(F)cc2)Oc2ccccc21 (centres undefined) fall in? low class

Which class does O=C1CC(c2ccccc2OCc2cccc(F)c2)Oc2ccccc21 (centres undefined) fall in? low class

Which class does CC(C)=CCOc1ccccc1C1CC(=O)c2ccccc2O1 (centres undefined) fall in? middle class

Which class does CCOc1ccccc1C1CC(=O)c2ccccc2O1 (centres undefined) fall in? middle class

Which class does COc1ccccc1C1CC(=O)c2ccccc2O1 (centres undefined) fall in? high class

Which class does CCCCOc1ccccc1C1CC(=O)c2ccccc2O1 (centres undefined) fall in? high class

Which class does C=CCOc1ccccc1C1CC(=O)c2ccccc2O1 (centres undefined) fall in? middle class

Which class does CC(C)COc1ccccc1C1CC(=O)c2ccccc2O1 (centres undefined) fall in? middle class

Which class does COCOc1ccccc1C1CC(=O)c2ccccc2O1 (centres undefined) fall in? middle class

Which class does CCCOc1ccccc1C1CC(=O)c2ccccc2O1 (centres undefined) fall in? high class

* * *

# Tested on: RAW264.7
# PROTOCOL_DETAILS: Inhibition of IL-1beta production in mouse RAW264.7 cells at 30 uM incubated for 12 hrs by sandwich immunoassay
# Format: functional
# CONDITION_CONTEXT: RAW264.7, 12 h
VALUE_KIND: inhibition at 30 µM (%)
Give bare numbers, in %.

[
  {
    "COMPOUND": "CC(C)c1ccc(COc2ccccc2C2CC(=O)c3ccccc3O2)cc1 (centres undefined)",
    "VALUE_REPORTED": 91.5
  },
  {
    "COMPOUND": "CC(C)=CCOc1ccccc1C1CC(=O)c2ccccc2O1 (centres undefined)",
    "VALUE_REPORTED": 41.8
  },
  {
    "COMPOUND": "C=CCOc1ccccc1C1CC(=O)c2ccccc2O1 (centres undefined)",
    "VALUE_REPORTED": 49.3
  },
  {
    "COMPOUND": "CCCCOc1ccccc1C1CC(=O)c2ccccc2O1 (centres undefined)",
    "VALUE_REPORTED": 19.3
  }
]

Hi there! I need inhibition at 30 µM for each item below, if you can.
1. CCOc1ccccc1C1CC(=O)c2ccccc2O1 (centres undefined)
2. COc1ccccc1C1CC(=O)c2ccccc2O1 (centres undefined)
3. O=C1CC(c2ccccc2OCc2cccc(F)c2)Oc2ccccc21 (centres undefined)
4. O=C1CC(c2ccccc2OCc2ccccc2)Oc2ccccc21 (centres undefined)
5. CCCCCOc1ccccc1C1CC(=O)c2ccccc2O1 (centres undefined)

1. 29.6
2. 37.3
3. 93.3
4. 93.2
5. 41.3

* * *

I'd be grateful if you could share measured viability at 24 h, 50 µM for these entries.
# PROTOCOL_DETAILS: Cytotoxicity against mouse J774A.1 cells assessed as cell viability at 50 uM after 24 hrs by MTT assay
# Assay type: cell-based, J774.A1
# CONDITION_CONTEXT: read-out: Activity
One number for each entry, in %.

Answered examples (5):
[
  {
    "COMPOUND": "CCCCOc1ccccc1C1CC(=O)c2ccccc2O1 (stereo not drawn)",
    "SCALE_UNIT": "%",
    "viability at 24 h, 50 µM": 95.5
  },
  {
    "COMPOUND": "O=C1CC(c2ccccc2OCc2cccc(F)c2)Oc2ccccc21 (stereo not drawn)",
    "SCALE_UNIT": "%",
    "viability at 24 h, 50 µM": 92.7
  },
  {
    "COMPOUND": "CC(C)COc1ccccc1C1CC(=O)c2ccccc2O1 (stereo not drawn)",
    "SCALE_UNIT": "%",
    "viability at 24 h, 50 µM": 84.5
  },
  {
    "COMPOUND": "O=C1CC(c2ccccc2OCc2ccc(F)cc2)Oc2ccccc21 (stereo not drawn)",
    "SCALE_UNIT": "%",
    "viability at 24 h, 50 µM": 91.1
  },
  {
    "COMPOUND": "O=C1CC(c2ccccc2OCc2ccccc2)Oc2ccccc21 (stereo not drawn)",
    "SCALE_UNIT": "%",
    "viability at 24 h, 50 µM": 96.5
  }
]

Hi there! I need viability at 24 h, 50 µM for each item below, if you can.
1. CC(C)CCOc1ccccc1C1CC(=O)c2ccccc2O1 (stereo not drawn)
2. C=CCOc1ccccc1C1CC(=O)c2ccccc2O1 (stereo not drawn)
3. CC(C)c1ccc(COc2ccccc2C2CC(=O)c3ccccc3O2)cc1 (stereo not drawn)
4. CCOc1ccccc1C1CC(=O)c2ccccc2O1 (stereo not drawn)
5. CCCOc1ccccc1C1CC(=O)c2ccccc2O1 (stereo not drawn)
6. COCOc1ccccc1C1CC(=O)c2ccccc2O1 (stereo not drawn)
7. CCCCCOc1ccccc1C1CC(=O)c2ccccc2O1 (stereo not drawn)
8. CC(C)=CCOc1ccccc1C1CC(=O)c2ccccc2O1 (stereo not drawn)

[88.6, 84, 99.7, 92.7, 93.6, 99.4, 92.1, 92.3]

* * *

I'd be grateful if you could share measured viability at 24 h, 50 µM for these entries.
# PROTOCOL_DETAILS: Cytotoxicity against mouse RAW264.7 cells assessed as cell viability at 50 uM after 24 hrs by MTT assay
# Format: cell-based
# CONDITION_CONTEXT: read-out: Activity
Express the reported value numerically, then name its unit.

[
  {
    "COMPOUND": "O=C1CC(c2ccccc2OCc2cccc(F)c2)Oc2ccccc21 (stereo not drawn)",
    "viability at 24 h, 50 µM": "90.3%"
  },
  {
    "COMPOUND": "CCCCOc1ccccc1C1CC(=O)c2ccccc2O1 (stereo not drawn)",
    "viability at 24 h, 50 µM": "78.3%"
  },
  {
    "COMPOUND": "CC(C)=CCOc1ccccc1C1CC(=O)c2ccccc2O1 (stereo not drawn)",
    "viability at 24 h, 50 µM": "94.8%"
  },
  {
    "COMPOUND": "CCCCCOc1ccccc1C1CC(=O)c2ccccc2O1 (stereo not drawn)",
    "viability at 24 h, 50 µM": "90.3%"
  },
  {
    "COMPOUND": "CC(C)c1ccc(COc2ccccc2C2CC(=O)c3ccccc3O2)cc1 (stereo not drawn)",
    "viability at 24 h, 50 µM": "92.5%"
  }
]

Hi there! I need viability at 24 h, 50 µM for each item below, if you can.
1. COc1ccccc1C1CC(=O)c2ccccc2O1 (stereo not drawn)
2. CC(C)COc1ccccc1C1CC(=O)c2ccccc2O1 (stereo not drawn)

["84.3%", "83.3%"]

Form field: reported viability at 24 h, 50 µM of O=C1CC(c2ccccc2OCc2ccc(F)cc2)Oc2ccccc21 (stereo not drawn) 95.2%

* * *

# Tested on: RAW264.7
# PROTOCOL_DETAILS: Inhibition of IL-1beta production in mouse RAW264.7 cells at 30 uM incubated for 12 hrs by sandwich immunoassay
# Assay type: functional
# CONDITION_CONTEXT: RAW264.7, 12 h
VALUE_KIND: inhibition at 30 µM (%)
Numbers only, in %.

Answered examples (4):
[
  {
    "MOLECULE": "COCOc1ccccc1C1CC(=O)c2ccccc2O1 (stereo not given)",
    "VALUE_REPORTED": 35.2
  },
  {
    "MOLECULE": "CCCOc1ccccc1C1CC(=O)c2ccccc2O1 (stereo not given)",
    "VALUE_REPORTED": 45.7
  },
  {
    "MOLECULE": "CC(C)COc1ccccc1C1CC(=O)c2ccccc2O1 (stereo not given)",
    "VALUE_REPORTED": 30.4
  },
  {
    "MOLECULE": "O=C1CC(c2ccccc2OCc2ccc(F)cc2)Oc2ccccc21 (stereo not given)",
    "VALUE_REPORTED": 45.2
  }
]

From here, focus on the item given below.
# get_value(readout= inhibition at 30 µM, system= RAW264.7) for CC(C)CCOc1ccccc1C1CC(=O)c2ccccc2O1 (stereo not given) 47.6
